Overview of reported Kb across a group of compounds:
tested target: UniProtKB P20288
Sequence (P20288 whole entry): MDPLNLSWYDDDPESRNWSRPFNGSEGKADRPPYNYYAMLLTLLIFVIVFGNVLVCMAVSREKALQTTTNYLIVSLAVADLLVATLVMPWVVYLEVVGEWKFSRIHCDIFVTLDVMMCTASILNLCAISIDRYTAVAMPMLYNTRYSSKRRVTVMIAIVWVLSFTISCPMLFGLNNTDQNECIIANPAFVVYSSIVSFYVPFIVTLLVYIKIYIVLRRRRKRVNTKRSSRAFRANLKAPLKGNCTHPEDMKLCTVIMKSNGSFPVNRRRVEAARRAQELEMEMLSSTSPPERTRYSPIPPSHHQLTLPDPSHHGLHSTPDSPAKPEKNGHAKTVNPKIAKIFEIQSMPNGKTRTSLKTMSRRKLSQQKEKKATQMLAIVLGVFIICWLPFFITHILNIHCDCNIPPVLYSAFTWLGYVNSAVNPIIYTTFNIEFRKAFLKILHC
experimental details: Compound was tested for its ability to inhibit specific [3H]spiroperidol binding to bovine anterior pituitary homogenate, at 10 uM
Give your result in µM as a bare value.

>>> experimental_result("CCCN(CCc1ccc(O)cc1)CCc1ccc(O)c2nc(O)ccc12")
0.77
>>> experimental_result("CCCN(CCC)CCc1ccc(O)c2c1CCC(=O)N2")
15.1
>>> experimental_result("CCCN(CCc1ccccc1)CCc1ccc(O)c2nc(O)ccc12")
2.02

Ask | Query: Kb; subject: NCCc1ccc(O)c2nc(O)ccc12
Reply | 4.04

###

Overview of reported Stimulation across a group of molecules:
tested target: D(1A) dopamine receptor (Rattus norvegicus)
experimental details: Tested for its ability to stimulate rat caudate adenylate cyclase (Dopamine receptor D1) at 10 uM
Give your result in % as a bare value.

Below, 5 molecules whose answers are already recorded.
>>> experimental_result("COc1ccc(CCN)c2ccc(O)nc12")
3
>>> experimental_result("CCCN(CCc1ccc(O)cc1)CCc1ccc(O)c2nc(O)ccc12")
0
>>> experimental_result("CCCN(CCC)CCc1ccc(OC)c2nc(O)ccc12")
3
>>> experimental_result("CCCN(CCc1ccccc1)CCc1ccc(O)c2nc(O)ccc12")
0
>>> experimental_result("Oc1ccc(CCNCCc2ccc(O)c3nc(O)ccc23)cc1")
2

Now take the following molecule into account.
Ask | Query: Stimulation; subject: CCCN(CCC)CCc1ccc(O)c2c1CCC(=O)N2
Reply | 1
